src = ChEMBL document CHEMBL4325909

Tested on: HCT-116
Test: Cytotoxicity against human HCT116 cells assessed as reduction in cell viability at 20 uM after 72 hrs by MTS assay relative to control
Type: functional
Test Readout: Activity

mol=COc1cccc(C(=O)/C=C/c2nc3ccccc3c(=O)[nH]2)c1 system_under_test=HCT-116 test_readout=Activity obs_value=>=50%
mol=O=C(/C=C/c1nc2ccccc2c(=O)[nH]1)c1ccccc1 system_under_test=HCT-116 test_readout=Activity obs_value=>=50%
mol=COc1ccc(/C=C/C(=O)c2nc3ccccc3c(=O)[nH]2)c(OC)c1 system_under_test=HCT-116 test_readout=Activity obs_value="< 50%"
mol=Cc1ccc(C(=O)/C=C/c2nc3ccccc3c(=O)[nH]2)c(C)c1 system_under_test=HCT-116 test_readout=Activity obs_value=>=50%
mol=COc1ccc(OC)c(C(=O)/C=C/c2nc3ccccc3c(=O)[nH]2)c1 system_under_test=HCT-116 test_readout=Activity obs_value=>=50%
mol=O=C(/C=C/c1ccccn1)c1nc2ccccc2c(=O)[nH]1 system_under_test=HCT-116 test_readout=Activity obs_value=>=50%
mol=O=C(/C=C/c1nc2ccccc2c(=O)[nH]1)c1ccc(Cl)c(Cl)c1 system_under_test=HCT-116 test_readout=Activity obs_value=>=50%
mol=O=C(/C=C/c1ccncc1)c1nc2ccccc2c(=O)[nH]1 system_under_test=HCT-116 test_readout=Activity obs_value=>=50%
mol=Cc1ccccc1C(=O)/C=C/c1nc2ccccc2c(=O)[nH]1 system_under_test=HCT-116 test_readout=Activity obs_value=>=50%
mol=O=C(/C=C/c1ccccc1)c1nc2ccccc2c(=O)[nH]1 system_under_test=HCT-116 test_readout=Activity obs_value="< 50%"
mol=COc1ccccc1/C=C/C(=O)c1nc2ccccc2c(=O)[nH]1 system_under_test=HCT-116 test_readout=Activity obs_value="< 50%"

* * *

System: HCT-116
Test: Cytotoxicity against human HCT116 cells assessed as reduction in cell viability at 20 uM after 72 hrs by MTS assay relative to control
Type: functional
Test Readout: Activity

mol=COc1cc(C(=O)/C=C/c2nc3ccccc3c(=O)[nH]2)ccc1O obs_value=>=50%
mol=COc1ccc(/C=C/C(=O)c2nc3ccccc3c(=O)[nH]2)cc1 obs_value="< 50%"
mol=COc1ccc(/C=C/C(=O)c2nc3ccccc3c(=O)[nH]2)cc1OC obs_value="< 50%"
mol=O=C(/C=C/c1ccc(Br)cc1)c1nc2ccccc2c(=O)[nH]1 obs_value=>=50%
mol=O=C(/C=C/c1nc2ccccc2c(=O)[nH]1)c1ccc(Br)cc1 obs_value=>=50%
mol=O=C(/C=C/c1cccs1)c1nc2ccccc2c(=O)[nH]1 obs_value=>=50%
mol=O=C(/C=C/c1nc2ccccc2c(=O)[nH]1)c1ccc(Cl)cc1 obs_value=>=50%
mol=Nc1ccc(C(=O)/C=C/c2nc3ccccc3c(=O)[nH]2)cc1 obs_value="< 50%"
mol=COc1cc(/C=C/C(=O)c2nc3ccccc3c(=O)[nH]2)cc(OC)c1OC obs_value=>=50%
mol=O=C(/C=C/c1ccco1)c1nc2ccccc2c(=O)[nH]1 obs_value=>=50%
mol=COc1cc(/C=C/C(=O)c2nc3ccccc3c(=O)[nH]2)cc(OC)c1 obs_value=>=50%

* * *

Tested on: HeLa
Assay: Cytotoxicity against human HeLa cells assessed as reduction in cell viability after 72 hrs by MTS assay
Assay type: functional, cell-based
Quick reference: IC50 of the listed items.
Test Readout: IC50 (µM)

mol=Cc1ccccc1C(=O)/C=C/c1nc2ccccc2c(=O)[nH]1 unit_label=µM relation== obs_value=10.4
mol=O=c1[nH]cc(F)c(=O)[nH]1 unit_label=µM relation=> obs_value=20
mol=COc1ccc(OC)c(C(=O)/C=C/c2nc3ccccc3c(=O)[nH]2)c1 unit_label=µM relation== obs_value=8.37
mol=COc1ccccc1C(=O)/C=C/c1nc2ccccc2c(=O)[nH]1 unit_label=µM relation== obs_value=13.4
mol=Cc1ccc(C(=O)/C=C/c2nc3ccccc3c(=O)[nH]2)c(C)c1 unit_label=µM relation== obs_value=9.55
mol=O=C(/C=C/c1nc2ccccc2c(=O)[nH]1)c1ccc(O)cc1 unit_label=µM relation== obs_value=9.44
mol=COc1ccc(C(=O)/C=C/c2nc3ccccc3c(=O)[nH]2)c(OC)c1 unit_label=µM relation== obs_value=12.7
mol=O=C(/C=C/c1nc2ccccc2c(=O)[nH]1)c1ccc(Br)cc1 unit_label=µM relation== obs_value=16.1
